# System: serum and liver lipid levels in rats
# test-description: Serum and liver lipid levels and relative liver weight in rats (100 mg/kg, 10 days)
# Type: in vivo, Male rats of the Wistar strain
# experimental-parameters: Table 2; 100 mg/kg p.o. 10 days; Mean ± S.E. (n = 9)
measured-endpoint: Liver lipid levels TG (mg/g liver)
Just the number in mg/g liver, nothing appended.

Problem: What value of measured Liver lipid levels TG is listed for O=C(OCCc1ccc(OCc2ccc(Cl)cc2)cc1)c1cccnc1 ?
Solution: 5.24

Problem: Can you handle O=C(OCCc1ccc(OCCc2ccc(Cl)cc2)cc1)c1cccnc1 next?
Solution: 5.32

Problem: Can you handle O=C(OCCCCc1ccc(OCCCCc2ccc(Cl)cc2)cc1)c1cccnc1 next?
Solution: 7.11

Problem: Can you handle O=C(OCc1ccc(OCCc2ccc(Cl)cc2)cc1)c1cccnc1 next?
Solution: 5.50

---

Would you kindly list Relative liver weight, relative to Control (100) for each of these molecules?
# Test system: serum and liver lipid levels in rats
# test-description: Serum and liver lipid levels and relative liver weight in rats (100 mg/kg, 10 days)
# Format: in vivo, Male rats of the Wistar strain
# experimental-parameters: Table 3; in parentheses; Control = (100)
Number, no unit, nothing else.

Problem: What value of measured Relative liver weight, relative to Control (100) is listed for O=C(OCCCc1ccc(OCc2ccc(Cl)cc2)cc1)c1cccnc1 ?
Solution: 98

Problem: Can you handle O=C(OCc1ccc(OCc2ccc(Cl)cc2)cc1)c1cccnc1 [KCD-232, 4-(4-chlorobenzyloxy)benzyl nicotinate, reference compound] next?
Solution: 98

Problem: Can you handle O=C(OCCCCc1ccc(OCc2ccc(Cl)cc2)cc1)c1cccnc1 next?
Solution: 103

Problem: Can you handle O=C(OCCc1ccc(OCc2ccc(Cl)cc2)cc1)c1cccnc1 next?
Solution: 100

Problem: Can you handle O=C(OCCCCCCc1ccc(OCc2ccc(Cl)cc2)cc1)c1cccnc1 next?
Solution: 98

Problem: Can you handle O=C(OCCc1ccc(OCCCCc2ccc(Cl)cc2)cc1)c1cccnc1 next?
Solution: 106

Problem: Can you handle O=C(OCCCCCCc1ccc(OCCCCCCc2ccc(Cl)cc2)cc1)c1cccnc1 next?
Solution: 101

---

# Tested on: serum and liver lipid levels in rats
# test-description: Serum and liver lipid levels and relative liver weight in rats (100 mg/kg, 10 days)
# Assay type: in vivo, Male rats of the Wistar strain
# experimental-parameters: Table 3; 100 mg/kg p.o. 10 days; Mean ± S.E. (n = 9)
Under this convention, t denotes Serum lipid levels PL strictly below 100 mg/dL and f denotes Serum lipid levels PL at or above 100 mg/dL.

Problem: Is 100 mg/dL strictly greater than the molecule's reported Serum lipid levels PL? molecule: O=C(OCCCc1ccc(OCc2ccc(Cl)cc2)cc1)c1cccnc1
Solution: f

Problem: Can you handle O=C(OCCCCc1ccc(OCc2ccc(Cl)cc2)cc1)c1cccnc1 next?
Solution: f

Problem: Can you handle O=C(OCCCCCCc1ccc(OCc2ccc(Cl)cc2)cc1)c1cccnc1 next?
Solution: f

Problem: Can you handle O=C(OCc1ccc(OCc2ccc(Cl)cc2)cc1)c1cccnc1 [KCD-232, 4-(4-chlorobenzyloxy)benzyl nicotinate, reference compound] next?
Solution: t

Problem: Can you handle O=C(OCCc1ccc(OCCCCc2ccc(Cl)cc2)cc1)c1cccnc1 next?
Solution: f

---

# System: serum and liver lipid levels in rats
# test-description: Serum and liver lipid levels and relative liver weight in rats (25 mg/kg, 10 days)
# Type: in vivo, male Wistar rats
# experimental-parameters: Table 4; 25 mg/kg p.o. 10 days; Mean ± S.E. (n = 7)
measured-endpoint: Relative liver weight (g/100 g b.w.)
Just the number in g/100 g b.w., nothing appended.

Problem: What value of measured Relative liver weight is listed for O=C(OCc1ccc(OCc2ccc(Cl)cc2)cc1)c1cccnc1 [KCD-232, 4-(4-chlorobenzyloxy)benzyl nicotinate, reference compound] ?
Solution: 3.72

Problem: Can you handle O=C(OCCCc1ccc(OCc2ccc(Cl)cc2)cc1)c1cccnc1 next?
Solution: 3.53

Problem: Can you handle O=C(OCc1ccc(OCCCc2ccc(Cl)cc2)cc1)c1cccnc1 next?
Solution: 3.84

Problem: Can you handle O=C(OCCCCCCc1ccc(OCc2ccc(Cl)cc2)cc1)c1cccnc1 next?
Solution: 3.91

Problem: Can you handle O=C(OCc1ccc(OCCCCCCc2ccc(Cl)cc2)cc1)c1cccnc1 next?
Solution: 3.91

---

Would you kindly list Relative liver weight, relative to Control (100) for each of these compounds?
# Tested on: serum and liver lipid levels in rats
# test-description: Serum and liver lipid levels and relative liver weight in rats (100 mg/kg, 10 days)
# Assay type: in vivo, Male rats of the Wistar strain
# experimental-parameters: Table 2; in parentheses; Control = (100)
Number, no unit, nothing else.

Problem: What value of measured Relative liver weight, relative to Control (100) is listed for O=C(OCCCCc1ccc(OCCCCc2ccc(Cl)cc2)cc1)c1cccnc1 ?
Solution: 101

Problem: Can you handle O=C(OCc1ccc(OCCCCc2ccc(Cl)cc2)cc1)c1cccnc1 next?
Solution: 105

Problem: Can you handle O=C(OCCc1ccc(OCc2ccc(Cl)cc2)cc1)c1cccnc1 next?
Solution: 106

Problem: Can you handle O=C(OCCCCc1ccc(OCc2ccc(Cl)cc2)cc1)c1cccnc1 next?
Solution: 115

Problem: Can you handle O=C(OCc1ccc(OCCc2ccc(Cl)cc2)cc1)c1cccnc1 next?
Solution: 103

Problem: Can you handle O=C(OCc1ccc(OCCCCCCc2ccc(Cl)cc2)cc1)c1cccnc1 next?
Solution: 108

Problem: Can you handle O=C(OCCc1ccc(OCCc2ccc(Cl)cc2)cc1)c1cccnc1 next?
Solution: 103

Problem: Can you handle O=C(OCc1ccc(OCc2ccc(Cl)cc2)cc1)c1cccnc1 [KCD-232, 4-(4-chlorobenzyloxy)benzyl nicotinate, reference compound] next?
Solution: 105

Problem: Can you handle O=C(OCc1ccc(OCCCc2ccc(Cl)cc2)cc1)c1cccnc1 next?
Solution: 101

---

# Test system: serum and liver lipid levels in rats
# test-description: Serum and liver lipid levels and relative liver weight in rats (25 mg/kg, 10 days)
# Type: in vivo, male Wistar rats
# experimental-parameters: Table 4; in parentheses; Control = (100)
measured-endpoint: Serum lipid levels TG, relative to Control (100)
Number, no unit, nothing else.

Problem: # query: Serum lipid levels TG, relative to Control (100) | item O=C(OCc1ccc(OCCCc2ccc(Cl)cc2)cc1)c1cccnc1 [n1=3, n2=1] | system: serum and liver lipid levels in rats
Solution: 64.0

Problem: Can you handle O=C(OCCCc1ccc(OCc2ccc(Cl)cc2)cc1)c1cccnc1 [n1=1, n2=3] next?
Solution: 77.2

Problem: Can you handle O=C(OCc1ccc(OCCCCCCc2ccc(Cl)cc2)cc1)c1cccnc1 [n1=6, n2=1] next?
Solution: 63.5

Problem: Can you handle O=C(OCCCCCCc1ccc(OCc2ccc(Cl)cc2)cc1)c1cccnc1 [n1=1, n2=6] next?
Solution: 88.6

Problem: Can you handle O=C(OCc1ccc(OCc2ccc(Cl)cc2)cc1)c1cccnc1 [KCD-232, 4-(4-chlorobenzyloxy)benzyl nicotinate, reference compound] next?
Solution: 82.8

---

# Tested on: serum and liver lipid levels in rats
# test-description: Serum and liver lipid levels and relative liver weight in rats (100 mg/kg, 10 days)
# Type: in vivo, Male rats of the Wistar strain
# experimental-parameters: Rattus norvegicus, po, Table 3; in parentheses; Control = (100); read-out: Liver lipid levels Ch, relative to Control (100)
# Protocol: (2) Male rats of the Wistar strain weighing 160-180 g were fed a stock deit (CE-2, Japan CLEA, Tokyo) and water ad libitum. The present compounds and KCD-232 were suspended, respectively, in a 0.5% of CMC solution and give orally to rats once a day at a dose of 100 mg/kg b.w. for 10 days. Control rats were received the 0.5% CMC solution alone. […] Total lipids were extracted from the serum and liver, and the levels of Ch, TG and PL were determined colorimetrically.
Would you kindly list response vs control in vivo at 100 mg/kg for each of these compounds?
Just the number in %, nothing appended.

Problem: # query: response vs control in vivo at 100 mg/kg | item O=C(OCc1ccc(OCc2ccc(Cl)cc2)cc1)c1cccnc1 [KCD-232, 4-(4-chlorobenzyloxy)benzyl nicotinate, reference compound] | system: serum and liver lipid levels in rats
Solution: 103

Problem: Can you handle O=C(OCCCCCCc1ccc(OCCCCCCc2ccc(Cl)cc2)cc1)c1cccnc1 [n1=6, n2=6] next?
Solution: 103

Problem: Can you handle O=C(OCCCCCCc1ccc(OCc2ccc(Cl)cc2)cc1)c1cccnc1 [n1=1, n2=6] next?
Solution: 107

Problem: Can you handle O=C(OCCCc1ccc(OCc2ccc(Cl)cc2)cc1)c1cccnc1 [n1=1, n2=3] next?
Solution: 97.8

Problem: Can you handle O=C(OCCc1ccc(OCCCCc2ccc(Cl)cc2)cc1)c1cccnc1 [n1=4, n2=2] next?
Solution: 98.3

Problem: Can you handle O=C(OCCc1ccc(OCc2ccc(Cl)cc2)cc1)c1cccnc1 [n1=1, n2=2] next?
Solution: 106

Problem: Can you handle O=C(OCCCCc1ccc(OCc2ccc(Cl)cc2)cc1)c1cccnc1 [n1=1, n2=4] next?
Solution: 108
